tested on: HCT-8 host cells (Hs18S); conditions: human, 41 h, 10 μM
Counter-ions that a name gives are not always drawn.
Hs18S ΔCT values by entry
MEASURE: Hs18S ΔCT

O=C(O)/C=C(\CC(=O)O)C(=O)O ... -0.01
Cc1[nH]c2ccccc2c1CN(C)C ... -0.11
C=CC(C1=CC(=O)C(OC)=CC1=O)c1ccc(OC)cc1 (centres unmarked) ... -0.01
O=c1c2ccccc2oc2ccccc12 ... 0.13
CNc1ccccc1C(=O)N1CCc2c([nH]c3ccccc23)C1=O ... 0.51
COC(=O)C[C@H]1C(C)(C)C2(O)OC34CC2C(=O)[C@]1(C)C3CC[C@]1(C)C4=CC(=O)O[C@H]1c1ccoc1 (stereo partly drawn) [8beta-HYDROXYCARAPIN, 3,8-HEMIACETAL] ... 0.18
CN[C@@H]1[C@@H](O)[C@@H](O[C@@H]2[C@@H](O)[C@H](O[C@H]3OC(CN)=CC[C@H]3N)[C@@H](N)C[C@H]2N)OC[C@]1(C)O [SISOMICIN SULFATE] ... -0.11
CN1CC(=O)NC1=N ... 0.00
CC(C)=CCC/C(C)=C\CO ... 0.43
C/C=C/c1ccc(OC)cc1 ... -0.08
COc1c2occc2c(OC)c2c(=O)cc(C)oc12 ... 0.22
CC(=O)OC1CCC23CC1(C)CCC2C(C)(C)CC3OC(C)=O (centres unmarked) [CLOVANEDIOL DIACETATE] ... 0.55
NC(=O)c1cccnc1 [NIACINAMIDE] ... -0.05
C[C@H](CCC(=O)O)[C@H]1CC[C@H]2[C@@H]3CC[C@@H]4C[C@H](O)CC[C@]4(C)[C@H]3CC[C@]12C ... 0.65
Nc1ncnc2c1ncn2[C@@H]1O[C@H](COP(=O)(O)O)[C@@H](O)[C@H]1O [ADENOSINE PHOSPHATE] ... -0.16
C[C@H]1[C@H](C)CC[C@]2(C(=O)O)CC[C@]3(C)C(=CC[C@@H]4[C@@]5(C)C[C@@H](O)[C@H](O)[C@@](C)(CO)[C@@H]5CC[C@]43C)[C@H]12 ... -0.29
COc1c(-c2coc3cc4c(cc3c2=O)CC(O)C(C)(C)O4)ccc2c1C=CC(C)(C)O2 (centres unmarked) ... 0.22
CC1=CC2C(CC1=O)C(C)=CCC2C(C)C (centres unmarked) ... -0.02
CCCCCc1c2c(cc(O)c1C(=O)O)OC(=O)c1c(cc(OC)cc1C(=O)CCCC)O2 ... 0.20
COC(=O)[C@@H]1[C@H]2C[C@H]3c4[nH]c5ccccc5c4CCN3C[C@@H]2CC[C@@H]1O [YOHIMBINE HYDROCHLORIDE] ... -0.45
O=C1C=C(O)C(=O)c2ccccc21 ... -0.16
COc1ccc([C@H]2COc3c(ccc(O)c3OC)C2)c(OC)c1O [DUARTIN (-)] ... -0.20
CC1=C(/C=C/C(C)=C/C=C/C(C)=C/C=C/C=C(C)/C=C/C=C(C)/C=C/C2=C(C)CCCC2(C)C)C(C)(C)CCC1 ... 0.04
Cc1ccc(C(C)C)cc2c(C)ccc1-2 ... -0.34
COc1ccc(CC(=O)c2ccc(O)cc2O)cc1 ... -0.18
CC1(C)O[C@H]2CC(=O)OC[C@]23[C@H]2CC[C@@]4(C)[C@H](c5ccoc5)OC(=O)[C@H]5O[C@]54[C@]2(C)C(=O)C[C@@H]13 ... -0.12
COC1=CC(=O)C[C@@H](C)[C@]12Oc1c(Cl)c(OC)cc(OC)c1C2=O ... 0.30
C[N+](C)(C)CC(=O)O [BETAINE HYDROCHLORIDE] ... -0.38
CC1/C(=N/O)C[C@@H]2C[C@H]1C2(C)C (some centres unmarked) ... 0.02
NCCC(=O)N[C@@H](Cc1cnc[nH]1)C(=O)O ... 0.08
C=CC(C)(O)CCC=C(C)CCC=C(C)C (mixture of isomers) ... -0.17
CC12CCC3C(CC3(C)C)C(C)(CCC1=O)O2 (centres unmarked) ... 0.27
CC(C)=CCc1c(O)cc2oc(C)cc(=O)c2c1O ... -0.39
COc1c2ccoc2cc2oc(C)cc(=O)c12 ... -0.27
CC(C)c1ccc2c(c1O)CC[C@H]1C3=C(CC[C@]21C)C(=O)OC3 [TRIPTOPHENOLIDE] ... -0.29
